This collection of values is drawn from ChEMBL document CHEMBL1131325.

system: Human alphaherpesvirus 1; assay: Compound was evaluated for the antiviral activity by their capacity to inhibit the replication of HSV-1 virus; type: functional, organism-based
Measured IC50, listed per entry.

compound-string | IC50
CCOC(=O)c1nc([C@@H]2O[C@H](CO)[C@@H](O)[C@H]2O)c(Cl)nc1Cl | 20 µM
CCOc1nc(Cl)c(C(N)=O)nc1[C@@H]1O[C@H](CO)[C@@H](O)[C@H]1O | > 100 µM
CCOC(=O)c1nc([C@@H]2O[C@H](CO)[C@@H](O)[C@H]2O)c(N)nc1Cl | > 100 µM
Nc1nc2c(ncn2COC(CO)CO)c(=O)[nH]1 | 1.8 µM
CCOC(=O)c1nc([C@@H]2O[C@H](CO)[C@@H](O)[C@H]2O)c(NC)nc1Cl | > 100 µM
NC(=O)c1nc([C@@H]2O[C@H](CO)[C@@H](O)[C@H]2O)c(N)nc1Cl | > 100 µM
COc1nc(Cl)c(C(N)=O)nc1[C@@H]1O[C@H](CO)[C@@H](O)[C@H]1O | > 100 µM
